Reference for the values: paper PMC7796460

Tested on: OVCAR-8 cells
Test: MTT viability assay, OVCAR-8
Type: cell-based
Conditions: Homo sapiens, OVCAR-8, 72 h, MTT 72 h, absence of Tariquidar
property: pIC50
The scale used: pIC50 is minus the common logarithm of the concentration in molar units.

Worked set:
Oc1c(CNCc2ccccc2F)cc(Cl)c2cccnc12 [Compound Q-4] | 5.97
Oc1c(CN2CCOCC2)ccc2cccnc12 [Compound Q-2, 7-(morpho-lino-methyl)quinolin-8-ol] | 5.50
Oc1c(CN2CCCCC2)ccc2cccnc12 [Compound Q-3, 7-(piperidin-1-ylmethyl)quinolin-8-ol] | 5.50

In the following, a different compound is considered.
Requested read-out pIC50, target or system OVCAR-8 cells, entry Oc1cccc2cccnc12 [Compound Q-1, 8-Hydroxyquinoline]
5.46

* * *

Tested on: MDCK cells
Test: MTT viability assay, MDCK
Assay type: cell-based, canine
Settings: Canis lupus familiaris, 72 h, MTT 72 h, absence of Tariquidar
property: IC50 (µM)
A number alone suffices; assume µM.

Record excerpt, results attached:
Oc1cccc2cccnc12 [Compound Q-1, 8-Hydroxyquinoline] | 3.27
Oc1c(CN2CCOCC2)ccc2cccnc12 [Compound Q-2, 7-(morpho-lino-methyl)quinolin-8-ol] | 9.15
Oc1c(CNCc2ccccc2F)cc(Cl)c2cccnc12 [Compound Q-4] | 4.55

Let's switch to this compound now.
Entry Oc1c(CN2CCCCC2)ccc2cccnc12 [Compound Q-3, 7-(piperidin-1-ylmethyl)quinolin-8-ol] , system MDCK cells: what IC50 was measured?
7.61

* * *

A collection of compounds and their measured pIC50
Test system: KB-v1 cells
Test: MTT viability assay, KB-v1
Assay type: cell-based
Conditions: Homo sapiens, KB-V1, 72 h, MTT 72 h, presence of 1 µM Tariquidar (values in brackets)
Quick note: pIC50 means taking -log10 of the concentration in moles per liter.

Below, each entry is followed by its recorded pIC50 result.
Oc1c(CN2CCCCC2)ccc2cccnc12 | 5.13
Oc1c(CN2CCOCC2)ccc2cccnc12 | 4.95
Oc1c(CNCc2ccccc2F)cc(Cl)c2cccnc12 | 5.64

// switching to the query compound
Which pIC50 is listed for Oc1cccc2cccnc12 [Compound Q-1, 8-Hydroxyquinoline] ?
4.96

* * *

System: MES-SA cells
Assay: MTT viability assay, MES-SA
Format: cell-based, human
Conditions: parental MES-SA, increasing concentrations of CuCl2, MTT 72 h (Figure 2I-L)
Method: MDCK II canine kidney cells, A431 epidermoid carcinoma cells, the human uterine sarcoma cell lines MES-SA and the doxorubicin selected MES-SA-Dx5 were obtained from ATCC (MDCK II: No. CRL-2936™, A431: No. CRL-1555™, MES-SA: No. CRL-1976™, MES-SA/Dx5: No. CRL-1977™). […] MTT viability assays were performed as described earlier with minor modifications. […] Significance was calculated using unpaired t-tests; results are given as *: p ≤ 0.05, **: p ≤ 0.01, ***: p ≤ 0.001, ****: p ≤ 0.0001.
property: Effect of co-administration of CuCl2 on toxicity

Oc1c(CN2CCOCC2)ccc2cccnc12 [Compound Q-2, 7-(morpho-lino-methyl)quinolin-8-ol] | increased the toxicity
Oc1cccc2cccnc12 [Compound Q-1, 8-Hydroxyquinoline] | increased the toxicity

* * *

The following compounds are listed with their measured SR NCI-ADRres values.
Tested on: NCI-ADRres cells
Test: MTT viability assay, NCI-ADRres
Assay type: cell-based
Details: IC50 OVCAR-8 vs. NCI-ADRres, absence of Tariquidar
Answer with the value's number alone.

Oc1c(CN2CCOCC2)ccc2cccnc12 [Compound Q-2, 7-(morpho-lino-methyl)quinolin-8-ol] | 1.11
Oc1cccc2cccnc12 [Compound Q-1, 8-Hydroxyquinoline] | 1.88
Oc1c(CNCc2ccccc2F)cc(Cl)c2cccnc12 [Compound Q-4] | 7.84

I have this compound here, Oc1c(CN2CCCCC2)ccc2cccnc12 [Compound Q-3, 7-(piperidin-1-ylmethyl)quinolin-8-ol] , and I need its recorded SR NCI-ADRres.
4.60
